Measured Relative Potency by item
targetOrTestSystem: hMC4R (Homo sapiens, UniProt P32245)
Sequence (P32245 whole entry): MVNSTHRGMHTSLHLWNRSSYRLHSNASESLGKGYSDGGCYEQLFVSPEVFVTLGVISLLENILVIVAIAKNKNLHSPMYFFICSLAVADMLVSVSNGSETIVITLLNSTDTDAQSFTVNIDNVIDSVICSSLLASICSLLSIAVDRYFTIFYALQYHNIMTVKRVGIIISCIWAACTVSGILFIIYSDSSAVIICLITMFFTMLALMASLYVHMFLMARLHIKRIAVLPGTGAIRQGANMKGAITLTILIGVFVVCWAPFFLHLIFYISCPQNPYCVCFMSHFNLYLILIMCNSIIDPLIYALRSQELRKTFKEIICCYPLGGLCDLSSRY
measurementDescription: Competitive binding assay against TRF probe 19, six-well plate protocol
reportedConditions: compared to the monovalent MSH(4) construct with the same scaffold core
Could you respond with only the numeric value?

See these solved cases before continuing.
N=C(N)NCCC[C@H](NC(=O)[C@@H](Cc1ccccc1)NC(=O)[C@H](Cc1c[nH]cn1)NC(=O)CCCCCn1cc(CN(Cc2cn(CCCCCC(=O)N[C@@H](CO)C(N)=O)nn2)Cc2cn(CCCCCC(=O)N[C@@H](Cc3c[nH]cn3)C(=O)N[C@H](Cc3ccccc3)C(=O)N[C@@H](CCCNC(=N)N)C(=O)N[C@@H](Cc3c[nH]c4ccccc34)C(N)=O)nn2)nn1)C(=O)N[C@@H](Cc1c[nH]c2ccccc12)C(N)=O [Compound 16b]	32
N=C(N)NCCC[C@H](NC(=O)[C@@H](Cc1ccccc1)NC(=O)[C@H](Cc1c[nH]cn1)NC(=O)CCCCCn1cc(COc2cc(OCc3cn(CCCCCC(=O)N[C@@H](CO)C(N)=O)nn3)cc(OCc3cn(CCCCCC(=O)N[C@@H](Cc4c[nH]cn4)C(=O)N[C@H](Cc4ccccc4)C(=O)N[C@@H](CCCNC(=N)N)C(=O)N[C@@H](Cc4c[nH]c5ccccc45)C(N)=O)nn3)c2)nn1)C(=O)N[C@@H](Cc1c[nH]c2ccccc12)C(N)=O [Compound 14b]	11

Attention now turns to another entry.
## Input Give the measured Relative Potency of N=C(N)NCCC[C@H](NC(=O)[C@@H](Cc1ccccc1)NC(=O)[C@H](Cc1c[nH]cn1)NC(=O)CCCCCn1cc(CN(Cc2cn(CCCCCC(=O)N[C@@H](Cc3c[nH]cn3)C(=O)N[C@H](Cc3ccccc3)C(=O)N[C@@H](CCCNC(=N)N)C(=O)N[C@@H](Cc3c[nH]c4ccccc34)C(N)=O)nn2)Cc2cn(CCCCCC(=O)N[C@@H](Cc3c[nH]cn3)C(=O)N[C@H](Cc3ccccc3)C(=O)N[C@@H](CCCNC(=N)N)C(=O)N[C@@H](Cc3c[nH]c4ccccc34)C(N)=O)nn2)nn1)C(=O)N[C@@H](Cc1c[nH]c2ccccc12)C(N)=O [Compound 16c] .
## Output 61

From: paper PMC4780440
